Listed molecules paired with reported pIC50
- study-system: purified Z-AAT protein (Homo sapiens, UniProt P01009, E366K)
- Construct: Purified Z-AAT protein from human plasma
- Sequence (P01009 25-418 E366K): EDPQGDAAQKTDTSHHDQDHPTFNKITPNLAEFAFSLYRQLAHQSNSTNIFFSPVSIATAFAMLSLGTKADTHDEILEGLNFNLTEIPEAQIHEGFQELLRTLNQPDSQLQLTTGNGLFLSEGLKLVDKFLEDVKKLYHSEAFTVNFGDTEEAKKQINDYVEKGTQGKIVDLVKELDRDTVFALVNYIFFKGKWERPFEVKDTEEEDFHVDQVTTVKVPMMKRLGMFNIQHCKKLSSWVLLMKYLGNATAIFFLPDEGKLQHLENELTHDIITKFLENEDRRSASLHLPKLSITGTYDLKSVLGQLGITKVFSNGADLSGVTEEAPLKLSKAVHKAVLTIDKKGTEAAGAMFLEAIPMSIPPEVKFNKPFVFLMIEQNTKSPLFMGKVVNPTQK
- test-details: Biochemical Assay (Z-AAT Elastase Activity Assay)
- condition: purified Z-AAT pre-incubated with compound 1 hour, then hNE; N.D. = activity not detected up to 30 μM
pIC50: −log10 of the molar value.

Use the examples below as a reference point.
CC(C)(CC#N)c1c(-c2ccc(C(=O)O)cc2)c2c(O)cc(F)cc2n1-c1ccc(F)cc1 | > 5.70
CC1(c2c(-c3ccc(C(=O)O)cc3)c3c(O)cc(F)cc3n2-c2ccc(F)c(F)c2)CCCOC1 (stereo not shown) | > 5.70
[2H]C1([2H])COCC([2H])([2H])C1([2H])c1c(-c2ccc(C(=O)O)cc2)c2c(O)cc(F)cc2n1-c1ccc(F)c(F)c1 | < 5.30
CC(C)c1c(-c2ccc(C(=O)O)cc2)c2c(O)cccc2n1-c1ccc(F)cc1 | > 5.70
CC1(c2c(-c3ccc(C(=O)O)cc3)c3c(O)c(F)ccc3n2-c2ccc(F)c(F)c2)CC(C#N)C1 (stereo not shown) | > 5.70
Cc1cc(-n2c(C(C)(C)COC(=O)NC3CCCC3)c(-c3ccc(C(=O)O)cc3)c3c(O)c(F)ccc32)ccc1F | < 5.30

Next molecule, pIC50 to be filled in.
Problem: Which pIC50 value belongs to "COCC1(c2c(-c3cnc(C(=O)O)c(Cl)c3)c3c(O)cc(F)cc3n2-c2ccc(F)c(OC)c2)CCC1" ?
Solution: < 5.30

---

Listed compounds paired with reported IC50
- study-system: purified Z-AAT protein (Homo sapiens, UniProt P01009, E366K)
- Construct: Purified Z-AAT protein from human plasma
- test-details: Biochemical Assay (Z-AAT Elastase Activity Assay)
- condition: purified Z-AAT pre-incubated with compound 1 hour, then hNE; N.D. = activity not detected up to 30 μM

Use the examples below as a reference point.
Cc1cc(-n2c(C3COC(C)(C)OC3)c(-c3ccc(C(=O)O)cc3)c3c(O)cccc32)ccc1F | > 30 µM
O=C(O)c1ccc(-c2c(C3CC4(COC4)C3)n(-c3ccc(F)c(F)c3)c3cc(F)cc(O)c23)cc1 | 2 to 5 µM
O=C(O)c1ccc(-c2c(C3CCOCC3)n(-c3ccc(F)cc3)c3cc(F)cc(O)c23)c(F)c1 | 2 to 5 µM

Problem: Which IC50 value belongs to "Cc1cc(-n2c(C(C)(C)CC#N)c(-c3cnc(C(=O)O)c(Cl)c3)c3c(O)cc(F)cc32)ccc1F" ?
Solution: > 30 µM

Problem: Which IC50 value belongs to Cc1cc(-n2c(C3CCOCC3)c(CC3CC(C(=O)O)C3)c3c(O)cccc32)ccc1F (stereo not drawn) ?
Solution: > 30 µM

Problem: Which IC50 value belongs to "O=C(O)c1ccc(-c2c(C3CCOCC3)n(-c3ccc(F)cc3)c3ccc(F)c(O)c23)cc1F" ?
Solution: < 2 µM

Problem: Which IC50 value belongs to "COc1cc(-c2c(C3CCOCC3)n(-c3ccc(F)cc3)c3ccc(F)cc23)ccc1C(=O)O" ?
Solution: > 30 µM

Problem: Which IC50 value belongs to Cc1cc(-n2c(-c3ccc(C(=O)O)cc3)c(C3CCCOC3)c3c(O)cc(F)cc32)ccc1F (stereo not drawn) ?
Solution: > 5 µM

Problem: Which IC50 value belongs to "Cc1cc(-n2c(C3CCOCC3)c([C@H]3C[C@](C)(C(=O)O)C3)c3cc(F)ccc32)ccc1F" ?
Solution: > 30 µM

Problem: Which IC50 value belongs to "O=C(O)c1ccc(-c2c(C(F)(F)F)n(-c3ccc(F)cc3)c3cccc(O)c23)cc1F" ?
Solution: < 2 µM

Problem: Which IC50 value belongs to Cc1cc(-n2c(C3CCOCC3)c(C3CC4(CC(C(=O)O)C4)C3)c3c(O)cccc32)ccc1F (racemic) [Compound 35] ?
Solution: > 5 µM

---

- study-system: NL20 human bronchial epithelial cells expressing human Z-AAT (Homo sapiens, UniProt P01009, E366K)
- Construct: doxycycline added with compounds)
- Sequence (P01009 25-418 E366K): as above
- test-details: AAT Function Assay (MSD Assay NL20-SI Cell Line)
- condition: read-out: NL20 Functional EC50
pEC50: −log10 of the molar value.
property: pEC50

Use the examples below as a reference point.
CC1(c2c(-c3ccc(C(=O)O)cc3)c3c(O)cccc3n2-c2ccc(F)cc2)COC1 | 5.70 to 6.30
Cc1cc(-n2c(C3(CO)CCC3)c(-c3ccc(C(=O)O)cc3)c3c(O)cc(F)cc32)ccc1F | 5.70 to 6.30
COc1cc(-n2c(C(C)(C)CO)c(-c3ccc(C(=O)O)cc3)c3c(O)cccc32)ccc1F | 5.70 to 6.30

Problem: Which pEC50 value belongs to "O=C(O)c1ccc(-c2c(C3CCOCC3)n(-c3ccc(F)c(F)c3)c3cc(Cl)cc(O)c23)cc1" ?
Solution: > 6.30

---

- study-system: purified Z-AAT protein (Homo sapiens, UniProt P01009, E366K)
- Construct: Purified Z-AAT protein from human plasma
- test-details: Biochemical Assay (Z-AAT Elastase Activity Assay)
- condition: purified Z-AAT pre-incubated with compound 1 hour, then hNE; N.D. = activity not detected up to 30 μM
Listed compounds paired with reported IC50

Use the examples below as a reference point.
O=C(O)c1ccc(F)c(-c2c(C3CCOCC3)n(-c3ccc(F)cc3)c3cccc(O)c23)c1 | > 5 µM
Cc1cc(-n2c(C3CCOCC3)c(-c3ccc(OCC(=O)O)cc3F)c3c(O)cc(F)cc32)ccc1F | > 30 µM

Next compound, IC50 to be filled in.
Problem: Which IC50 value belongs to "Cc1cc(-n2c(CC(C)(C)O)c([C@H]3C[C@@H](C(=O)O)C3)c3c(O)cccc32)ccc1F" ?
Solution: > 30 µM

---

- study-system: purified Z-AAT protein (Homo sapiens, UniProt P01009, E366K)
- Construct: Purified Z-AAT protein from human plasma
- test-details: Biochemical Assay (Z-AAT Elastase Activity Assay)
- condition: purified Z-AAT pre-incubated with compound 1 hour, then hNE; N.D. = activity not detected up to 30 μM
pIC50: −log10 of the molar value.
property: pIC50

Use the examples below as a reference point.
Cc1cc(-n2c(C(C)C)c(C3CC(C)(C(=O)O)C3)c3c(O)cccc32)ccc1F (stereo not shown) [Compound 56] | < 5.30
Cc1cc(-n2c(C(C)(C)CC#N)c(-c3cnc(C(=O)O)s3)c3c(O)cc(F)cc32)ccc1F | > 5.70
CC(C)c1c(C2CC3(CC(C(=O)O)C3)C2)c2ccc(F)cc2n1-c1ccc(F)cc1 (stereo not shown) | < 5.30
CC(C)(CC#N)c1c(-c2ccc(C(=O)O)c(O)c2)c2ccc(F)cc2n1-c1ccc(F)c(F)c1 | 5.30 to 5.70
COC1CC(C)(c2c(-c3ccc(C(=O)O)cc3)c3c(O)cc(F)cc3n2-c2ccc(F)c(C)c2)C1 (stereo not shown) | > 5.70

Problem: Which pIC50 value belongs to "O=C(O)c1ccc(-c2c(C3CCOCC3)n(-c3ccc(F)c(F)c3)c3cc(F)cc(O)c23)cc1" ?
Solution: 5.30 to 5.70

Problem: Which pIC50 value belongs to CC(c1c(-c2ccc(C(=O)O)cc2)c2c(O)cccc2n1-c1ccc(F)cc1)C1CCOC1 (single isomer, unassigned) [Compound 210] ?
Solution: < 5.30

Problem: Which pIC50 value belongs to "COCC1(c2c(-c3ccc(C(=O)O)nc3)c3c(O)cc(F)cc3n2-c2ccc(F)c(OC)c2)CCC1" ?
Solution: < 5.30

Problem: Which pIC50 value belongs to O=C(O)C1CC2(C1)CC(c1c(C3CCOCC3)n(-c3ccc(F)cc3)c3ccc(F)cc13)C2 (stereo not shown) ?
Solution: < 4.52

Problem: Which pIC50 value belongs to "CC(C)(CO)c1c(-c2ccc(C(=O)O)cc2)c2c(O)cc(F)cc2n1-c1ccc(F)c(F)c1" ?
Solution: 5.30 to 5.70

---

Listed molecules paired with reported pEC50
- study-system: NL20 human bronchial epithelial cells expressing human Z-AAT (Homo sapiens, UniProt P01009, E366K)
- Construct: doxycycline added with compounds)
- test-details: AAT Function Assay (MSD Assay NL20-SI Cell Line)
- condition: read-out: NL20 Functional EC50
pEC50: −log10 of the molar value.

Use the examples below as a reference point.
O=C(O)c1ccc(-c2c(C3CCCN(S(=O)(=O)C(F)(F)F)C3)n(-c3ccc(F)cc3)c3cccc(O)c23)cc1 (stereo not shown) [Compound 202] | < 5.70
COC12CCC(c3c(-c4ccc(C(=O)O)cc4)c4c(O)cccc4n3-c3ccc(F)cc3)(CC1)C2 [Compound 175] | > 6.30
CS(=O)(=O)c1cccc(-c2c(C3CCOCC3)n(-c3ccc(F)c(F)c3)c3cc(F)cc(O)c23)c1 [Compound 160] | 5.70 to 6.30
CCC1(c2c(-c3ccc(C(=O)O)cc3)c3c(O)cccc3n2-c2ccc(F)cc2)COC1 [Compound 185] | 5.70 to 6.30

Problem: Which pEC50 value belongs to Cc1cc(-n2c(C3CCOCC3)c(-c3ccc(C(=O)O)s3)c3c(O)cc(F)cc32)ccc1F [Compound 27] ?
Solution: > 6.30

Problem: Which pEC50 value belongs to C[C@]1(C(=O)O)C[C@H](c2c(C3CCOCC3)n(-c3ccc(F)cc3)c3ccc(F)cc32)C1 [Compound W21] ?
Solution: < 5.70

Problem: Which pEC50 value belongs to COCC(C)(C)c1c(-c2ccc(C(=O)O)cc2)c2c(O)cc(F)cc2n1-c1ccc(F)cn1 [Compound 467] ?
Solution: < 5.70

Problem: Which pEC50 value belongs to CC(C)(CO)c1c(-c2ccc(C(=O)O)cc2)c2c(O)cccc2n1-c1ccc(F)cc1 [Compound 120] ?
Solution: < 5.70

Problem: Which pEC50 value belongs to COCC1(c2c(-c3ccc(C(=O)O)c(F)c3F)c3c(O)cc(F)cc3n2-c2ccc(F)c(OC)c2)CCC1 [Compound 487] ?
Solution: > 6.30

Problem: Which pEC50 value belongs to COc1cc(-n2c(C3CCOCC3)c(-c3ccc(C(=O)O)c(O)c3)c3c(O)cc(Cl)cc32)ccc1F [Compound 511] ?
Solution: > 6.30
